B1: GAGE1 (parent)
chain: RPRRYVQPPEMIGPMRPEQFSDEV

# Variants of: B1
# protocol_description: protein stability index of a GFP-peptide fusion (GPS, HEK-293T) (PSI 1-6); higher = more stable;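 also: lentivirally expressed fusions sorted by FACS into six bins by GFP to DsRed ratio, PSI derived from sequencing read proportions per bin multiplied by bin number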
# condition_context: c terminus: a fixed tail appended
quantity_measured: protein stability index

1) F20P :: 4.72

So for `S21Q` , the logged protein stability index turned out to be 3.79

So for `R3I` , the logged protein stability index turned out to be 4.23

So for `I12F` , the logged protein stability index turned out to be 3.99

So for `S21R` , the logged protein stability index turned out to be 4.11

So for `F20T` , the logged protein stability index turned out to be 4.62

So for `E10M` , the logged protein stability index turned out to be 4

So for `P9W` , the logged protein stability index turned out to be 3.77

So for `M11W` , the logged protein stability index turned out to be 3.91

So for `Q7V` , the logged protein stability index turned out to be 3.57

So for `R1E` , the logged protein stability index turned out to be 4.23

So for `Q19G` , the logged protein stability index turned out to be 4.28
